- ASSAY TARGET: Amyloid β (1-40) peptide (Homo sapiens)
- Construct: amyloid β (1-40) peptide hydrochloric acid salt
- Sequence (P05067 672-711 limits assumed): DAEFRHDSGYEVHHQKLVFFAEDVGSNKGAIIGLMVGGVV
- ASSAY OVERVIEW: Inhibitory activity on formation of amyloid from amyloid β protein (thioflavin T method)
- RECORDED CONDITIONS: amyloid β (1-40) 15 μmol/L, PBS(−), room temperature, one day; read-out: Aggregation inhibitory activity IC50 A β 1-40
READOUT NAME: IC50 (µM)
State just the number; it will be interpreted in µM.

Task item: Requested read-out: IC50. Entry: Ic1ccc2nc(-c3ccc(-c4cc[nH]n4)cc3)cn2c1
Reply: 22.3

* * *

- ASSAY TARGET: synthetic amyloid β (1-40) aggregates (Homo sapiens, UniProt P05067)
- Sequence (P05067 672-711 limits assumed): as above
- ASSAY OVERVIEW: Inhibition of binding of compound 23 to amyloid β protein aggregates
- Parameters: amyloid β (1-40) peptide hydrochloric acid salt; host or cells: chemically synthesised peptide
- RECORDED CONDITIONS: binding of 125I-labeled compound 23 to A β 1-40 aggregates; room temperature, three hours
READOUT NAME: pIC50
Lab note — pIC50 values are minus log10 of concentrations in M.

Task item: Requested read-out: pIC50. Entry: Ic1ccc2nc(-c3ccc(-c4cc[nH]n4)cc3)cn2c1 [Example 3]
Reply: 8.01

* * *

- ASSAY TARGET: synthetic amyloid β (1-40) aggregates (Homo sapiens)
- ASSAY OVERVIEW: Inhibition of binding of compound 23 to amyloid β protein aggregates
- Set-up: amyloid β (1-40) peptide hydrochloric acid salt; host or cells: chemically synthesised peptide
- RECORDED CONDITIONS: read-out: Inhibitory activity (n = 3) IC50 Mean ± S.D.; binding of 125I-labeled compound 23 to A β 1-40 aggregates; room temperature, three hours
READOUT NAME: IC50 (nM)
State just the number; it will be interpreted in nM.

Task item: Requested read-out: IC50. Entry: CC(=C(C#N)C#N)c1ccc2cc(N(C)CCF)ccc2c1 [FDDNP, reference compound]
Reply: 1050
